meta.source: ChEMBL document CHEMBL4177750

Assay: Half life in Swiss mouse plasma at 30 mg/kg, iv administered as single bolus dose by LC-MS/MS method
Format: ADME, organism-based
Endpoint: half-life

half-life measured on "N[C@H]1CCN(c2cc3c(cc2F)n2ncnc2c(=O)n3C2CC2)C1" = 1 h

====

Assay: Drug degradation in DMSO solution in presence of glutathione measured within 1 hr
Assay type: physicochemical
Conditions: DMSO solution with glutathione; read-out: Drug degradation
Endpoint: degraded at 1 h

Just so you know, measured degraded at 1 h for "CC(=O)Nc1ccc(/C=c2\c3ccccc3c3c2n2ccnc2c(=O)n3C)cc1" came out at > 50%

====

Listed below: MIC values for each entry.
Tested on: Escherichia coli
Test: Antibacterial activity against tolC-deficient fluoroquinolones-resistant Escherichia coli W4753 clinical isolate harboring DNA gyrase S83L/D87N/ParC S80I/ParE S458A mutant after 20 to 22 hrs
The reply should be a number in µg/mL, with the unit left off.

Worked cases, answers included:
Response field MIC (Escherichia coli) for item "Cn1c(=O)c2nccn2c2/c(=C/c3ccncc3)c3ccccc3c21" : 0.25

Log: Escherichia coli, molecule "N[C@H]1CCN(c2cc3c(cc2F)n2ccnc2c(=O)n3C2CC2)C1" , MIC = 2

// MIC (Escherichia coli) for "CNc1cc(=O)n(C)c2c1/C(=C/c1ccncc1)c1ccccc1-2" = 2

Lab entry: Escherichia coli assay, molecule "Cn1cc(-c2ccc(NC(=O)Cc3ccc(Cl)cc3)cc2)n2ccnc2c1=O" , MIC = 4

"O=c1c2nccn2c2cc(F)c(-c3ccncc3)cc2n1C1CC1" tested on Escherichia coli gave MIC: 0.5

Proceeding to the next molecule to report its MIC.
The molecule "CC(=O)Nc1ccc(/C=c2\c3ccccc3c3c2n2ccnc2c(=O)n3C)cc1" , when measured on Escherichia coli, yielded MIC of 2

====

Experiment: Metabolic stability in mouse plasma at 1 uM after 4 hrs
Assay type: ADME, cell-free
Conditions: read-out: Stability
Listing: remaining at 4 h, 1 µM of selected molecules

What the record says about "N[C@H]1CCN(c2cc3c(cc2F)n2ccnc2c(=O)n3C2CC2)C1" : remaining at 4 h, 1 µM is 80 to 120%

Consider "O=c1c2nccn2c2cc(F)c(-c3ccncc3)cc2n1C1CC1" . Its measured remaining at 4 h, 1 µM is 80 to 120%

Data point: "N[C@H]1CCN(c2cc3c(cc2F)n2ncnc2c(=O)n3C2CC2)C1" ; remaining at 4 h, 1 µM = 80 to 120%

====

Documented metabolised at 20 min, 5 µM across a set of compounds
Assay: Drug metabolism in rat liver microsomes at 5 uM after 20 mins in presence of NADPH
Type: ADME, microsome
Conditions: read-out: Drug metabolism
Give a bare numeral; the unit % is implied.

# count of solved cases: 2
The reported value for "N[C@H]1CCN(c2cc3c(cc2F)n2ncnc2c(=O)n3C2CC2)C1" in terms of metabolised at 20 min, 5 µM is 8

metabolised at 20 min, 5 µM in this record for "N[C@H]1CCN(c2cc3c(cc2F)n2ccnc2c(=O)n3C2CC2)C1" : 11

Continue with the next compound.
Query "O=c1c2nccn2c2cc(F)c(-c3ccncc3)cc2n1C1CC1" yields metabolised at 20 min, 5 µM of 68

====

Assay: AUC (0 to last) in Swiss mouse plasma at 30 mg/kg, iv administered as single bolus dose by LC-MS/MS method
Format: ADME, organism-based
Set-up: dose 30 mg/kg, route intravenous, time 0 - last
Endpoint: AUC(0-t) (ng·h/mL)
Expressed in ng·h/mL, but write only the number.

Record "N[C@H]1CCN(c2cc3c(cc2F)n2ncnc2c(=O)n3C2CC2)C1" . Reported AUC(0-t): 7200

====

Documented Papp across a set of compounds
Assay: Apparent permeability across human Caco2 cells
Conditions: Caco-2
Reply numerically in ×10⁻⁶ cm/s, unit not repeated.

Lab book: Papp of "N[C@H]1CCN(c2cc3c(cc2F)n2ccnc2c(=O)n3C2CC2)C1" noted as 0.4

Proceed to the following item.
The compound "N[C@H]1CCN(c2cc3c(cc2F)n2ncnc2c(=O)n3C2CC2)C1" showed Papp equal to 3.2

====

Target: hERG (KCNH2) (Homo sapiens)
Sequence (Q12809 whole entry): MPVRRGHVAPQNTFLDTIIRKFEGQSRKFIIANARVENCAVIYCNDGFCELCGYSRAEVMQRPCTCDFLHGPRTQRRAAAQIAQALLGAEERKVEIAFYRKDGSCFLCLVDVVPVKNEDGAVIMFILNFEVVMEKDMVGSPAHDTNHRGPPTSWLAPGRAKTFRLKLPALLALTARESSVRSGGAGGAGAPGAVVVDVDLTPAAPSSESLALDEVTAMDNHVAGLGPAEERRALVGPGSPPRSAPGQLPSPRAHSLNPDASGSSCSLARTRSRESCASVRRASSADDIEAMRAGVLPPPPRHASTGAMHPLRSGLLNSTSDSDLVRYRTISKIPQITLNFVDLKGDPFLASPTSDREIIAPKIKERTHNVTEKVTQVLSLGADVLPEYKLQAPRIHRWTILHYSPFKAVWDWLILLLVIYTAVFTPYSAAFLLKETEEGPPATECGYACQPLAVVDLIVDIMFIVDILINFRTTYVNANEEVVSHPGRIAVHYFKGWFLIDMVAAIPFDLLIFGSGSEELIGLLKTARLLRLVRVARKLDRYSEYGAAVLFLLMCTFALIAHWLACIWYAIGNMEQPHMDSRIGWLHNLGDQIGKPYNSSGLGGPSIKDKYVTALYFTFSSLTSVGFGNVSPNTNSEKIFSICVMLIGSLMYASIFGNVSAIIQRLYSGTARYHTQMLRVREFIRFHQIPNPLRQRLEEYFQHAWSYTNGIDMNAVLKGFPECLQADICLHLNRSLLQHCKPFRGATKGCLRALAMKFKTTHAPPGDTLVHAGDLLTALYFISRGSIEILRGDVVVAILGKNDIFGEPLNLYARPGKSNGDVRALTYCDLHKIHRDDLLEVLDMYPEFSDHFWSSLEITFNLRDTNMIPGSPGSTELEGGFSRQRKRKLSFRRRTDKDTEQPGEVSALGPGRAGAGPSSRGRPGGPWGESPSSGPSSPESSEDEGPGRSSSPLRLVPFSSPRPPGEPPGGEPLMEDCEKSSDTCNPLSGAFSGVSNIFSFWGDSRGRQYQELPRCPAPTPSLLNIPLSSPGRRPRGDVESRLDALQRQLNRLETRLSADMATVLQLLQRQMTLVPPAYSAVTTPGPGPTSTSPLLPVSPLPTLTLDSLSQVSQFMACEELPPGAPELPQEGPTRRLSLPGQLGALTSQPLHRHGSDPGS
Test: Inhibition of human ERG transfected in CHO cells at 10 uM by patch clamp method relative to control
Assay type: cell-based
Conditions: CHO cells transfected with human ERG
Endpoint: inhibition at 10 µM

Per the record, "CC(=O)Nc1ccc(/C=c2\c3ccccc3c3c2n2ccnc2c(=O)n3C)cc1" has inhibition at 10 µM of > 50%

====

Biological target: Cytochrome P450 3A4 (Homo sapiens, UniProt P08684)
Sequence (P08684 whole entry): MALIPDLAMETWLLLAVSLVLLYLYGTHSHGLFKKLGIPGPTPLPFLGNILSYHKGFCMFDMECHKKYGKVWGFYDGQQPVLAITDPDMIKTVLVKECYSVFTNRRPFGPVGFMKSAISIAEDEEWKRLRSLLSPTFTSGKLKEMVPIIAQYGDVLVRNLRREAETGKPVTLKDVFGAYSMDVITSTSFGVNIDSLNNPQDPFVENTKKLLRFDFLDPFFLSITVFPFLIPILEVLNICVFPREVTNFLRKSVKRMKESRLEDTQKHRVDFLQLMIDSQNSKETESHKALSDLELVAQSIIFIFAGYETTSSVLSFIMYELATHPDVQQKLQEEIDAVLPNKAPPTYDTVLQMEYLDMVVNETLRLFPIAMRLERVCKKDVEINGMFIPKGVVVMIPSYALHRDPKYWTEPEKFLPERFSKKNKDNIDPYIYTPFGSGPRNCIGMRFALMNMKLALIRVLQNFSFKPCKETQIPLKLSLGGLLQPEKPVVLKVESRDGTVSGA
Experiment: Inhibition of CYP3A4-mediated midazolam metabolism in human liver microsomes
pIC50: −log10 of the molar value.
Catalogue of pIC50 readings, one per entry.

Field pIC50 (entry "N[C@H]1CCN(c2cc3c(cc2F)n2ccnc2c(=O)n3C2CC2)C1" ) reads < 4.52

For the next question, use this molecule.
response.value for "N[C@H]1CCN(c2cc3c(cc2F)n2ncnc2c(=O)n3C2CC2)C1" (field: pIC50) = < 4.52

====

Tested on: Staphylococcus aureus
Assay: Antibacterial activity against methicillin-resistant Staphylococcus aureus ATCC 33592 after 20 to 22 hrs
Type: functional
Endpoint: MIC

Below, each entry is followed by its recorded MIC result.
// recorded MIC for "N[C@H]1CCN(c2cc3c(cc2F)c2nc[nH]c2c(=O)n3C2CC2)C1" : 16 µg/mL

// "Cn1cc(-c2ccc(NC(=O)Cc3ccc(Cl)cc3)cc2)n2ccnc2c1=O" : MIC value = > 32 µg/mL

More entries:
Value of MIC reported for the compound "N[C@H]1CCN(c2cc3c(cc2F)n2ccnc2c(=O)n3C2CC2)C1" is 8 µg/mL

Notebook: "CC(=O)Nc1ccc(/C=c2\c3ccccc3c3c2n2ccnc2c(=O)n3C)cc1" , MIC read as 0.25 µg/mL

====

Assay: Cytotoxicity against human HepG2 cells assessed as decrease in cell viability after 40 hrs by Celltiter Glo assay
Endpoint: CC50 at 40 h

// CC50 at 40 h value for "N[C@H]1CCN(c2cc3c(cc2F)n2ncnc2c(=O)n3C2CC2)C1" : > 30 µM

Noted for "N[C@H]1CCN(c2cc3c(cc2F)n2ccnc2c(=O)n3C2CC2)C1" : its CC50 at 40 h reads > 30 µM

Here is another molecule to look at.
Record "CC(=O)Nc1ccc(/C=c2\c3ccccc3c3c2n2ccnc2c(=O)n3C)cc1" , field CC50 at 40 h: 8.4 µM

====

Assay: Drug degradation in DMSO solution in presence of mercaptoethanol measured within 1 hr
Format: physicochemical
Conditions: DMSO solution with mercaptoethanol; read-out: Drug degradation
Endpoint: degraded at 1 h

"CC(=O)Nc1ccc(/C=c2\c3ccccc3c3c2n2ccnc2c(=O)n3C)cc1" yielded degraded at 1 h of > 50%

====

Biological target: Cytochrome P450 3A4 (Homo sapiens, UniProt P08684)
Experiment: Inhibition of CYP3A4-mediated testosterone metabolism in human liver microsomes
Endpoint: IC50

Measured IC50 for this entry "N[C@H]1CCN(c2cc3c(cc2F)n2ccnc2c(=O)n3C2CC2)C1" on Cytochrome P450 3A4 (Homo sapiens, UniProt P08684): > 30 µM

Then this compound:
Entry "N[C@H]1CCN(c2cc3c(cc2F)n2ncnc2c(=O)n3C2CC2)C1" ; assay system Cytochrome P450 3A4 (Homo sapiens, UniProt P08684); IC50 recorded at > 30 µM

====

Item-by-item account of MIC
System: Staphylococcus aureus
Assay: Antibacterial activity against methicillin-resistant Staphylococcus aureus ATCC 33592 after 20 to 22 hrs
Format: functional
Form entry: value (µg/mL) — number only.

Solved cases below.
Measured MIC, "O=c1c2nccn2c2cc(F)c(-c3cccnc3)cc2n1C1CC1" : 64

Entry "O=c1c2ncnn2c2cc(F)c(-c3ccncc3)cc2n1C1CC1" ; MIC = 16

MIC measured on "N[C@H]1CCN(c2cc3c(cc2F)c(=O)n(N)c(=O)n3C2CC2)C1" = 2

MIC in this record for "O=c1c2nccn2c2cc(F)c(-c3ccncc3)cc2n1C1CC1" : 4

// MIC value for "O=c1c2cncn2c2cc(F)c(-c3ccncc3)cc2n1C1CC1" : 64

New cases:
Looking up "N[C@H]1CCN(c2cc3c(cc2F)n2cncc2c(=O)n3C2CC2)C1" , I found its MIC recorded as 16

Looking up "N[C@H]1CCN(c2cc3c(cc2F)n2ncnc2c(=O)n3C2CC2)C1" , I see its MIC listed as 4
